System: 621-102 (TSC2-deficient);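 note: immortalized renal angiomyolipoma cells stably carrying empty vector or TSC2, dosed in 384-well plates in DMEM, viability normalized to vehicle-treated wells within each plate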
Experiment: relative viability vs DMSO; higher = less cytotoxic
Conditions: 0.1 µM; serum: 10% FBS; 72 h
Structures can show the parent of a compound that is named as a salt.
MEASUREMENT LABEL: relative viability (%)
Value expressed in %; do not type the unit.

Task: Could you share which relative viability value was measured for `O=C1NC(=O)/C(=C\c2ccc3nccnc3c2)S1` ?
Output: 108

Task: Could you share which relative viability value was measured for `CO[C@H]1C[C@@H]2CC[C@@H](C)[C@@](O)(O2)C(=O)C(=O)N2CCCC[C@H]2C(=O)O[C@H]([C@H](C)C[C@@H]2CC[C@@H](OC(=O)C(C)(CO)CO)[C@H](OC)C2)CC(=O)[C@H](C)/C=C(\C)[C@@H](O)[C@@H](OC)C(=O)[C@H](C)C[C@H](C)/C=C/C=C/C=C/1C` ?
Output: 36.5

Task: Could you share which relative viability value was measured for `O=C(O)Cc1cccc(OCCCN(Cc2cccc(C(F)(F)F)c2Cl)CC(c2ccccc2)c2ccccc2)c1` ?
Output: 86.3

Task: Could you share which relative viability value was measured for CN(C)C(=O)C(CCN1CCC(O)(c2ccc(Cl)cc2)CC1)(c1ccccc1)c1ccccc1 [Loperamide HCl] ?
Output: 109

Task: Could you share which relative viability value was measured for `O=C1c2c(O)ccc(O)c2C(=O)c2c(NCCNCCO)ccc(NCCNCCO)c21` ?
Output: 33.2

Task: Could you share which relative viability value was measured for `CN(C)Cc1ccc(-c2nc3cccc4c3n2CCNC4=O)cc1` ?
Output: 119

Task: Could you share which relative viability value was measured for CC[C@@]1(O)C(=O)OCc2c1cc1n(c2=O)Cc2cc3c(CN(C)C)c(O)ccc3nc2-1 [Topotecan Hydrochloride] ?
Output: 80.1

Task: Could you share which relative viability value was measured for COc1cc2nc(N3CCN(C(=O)C4COc5ccccc5O4)CC3)nc(N)c2cc1OC (stereo not drawn) [Doxazosin mesylate] ?
Output: 100

Task: Could you share which relative viability value was measured for `Cc1c(NC(=O)OC[C@@H]2COCCN2)cn2ncnc(Nc3ccc4c(cnn4Cc4cccc(F)c4)c3)c12` ?
Output: 104

Task: Could you share which relative viability value was measured for O=S(=O)(c1cccc2cnccc12)N1CCCNCC1 [Fasudil HCl] ?
Output: 108

Task: Could you share which relative viability value was measured for Cc1ccc(Nc2nccc(N(C)c3ccc4c(C)n(C)nc4c3)n2)cc1S(N)(=O)=O [Pazopanib Hydrochloride] ?
Output: 114

Task: Could you share which relative viability value was measured for `C[C@@H](Oc1cc(-c2cnn(C3CCNCC3)c2)cnc1N)c1c(Cl)ccc(F)c1Cl` ?
Output: 106

Task: Could you share which relative viability value was measured for `O=C(CCCCCCC(=O)Nc1ccccc1)NO` ?
Output: 106

Task: Could you share which relative viability value was measured for `Oc1cccc(-c2nc(N3CCOCC3)c3oc4ncccc4c3n2)c1` ?
Output: 103

Task: Could you share which relative viability value was measured for `c1ccc2c(CCNc3ccc(Nc4ccncc4)cc3)c[nH]c2c1` ?
Output: 114

Task: Could you share which relative viability value was measured for `S=C(NCc1ccc2c(c1)OCO2)N1CCN(c2ncnc3c2oc2ccccc23)CC1` ?
Output: 125

Task: Could you share which relative viability value was measured for COC[C@@H](c1ccc(C(F)(F)F)cc1)N1CCN(C2(C)CCN(C(=O)c3c(C)ncnc3C)CC2)C[C@@H]1C [Vicriviroc Malate] ?
Output: 108

Task: Could you share which relative viability value was measured for `CN1CC(=O)N2[C@H](c3ccc4c(c3)OCO4)c3[nH]c4ccccc4c3C[C@@H]2C1=O` ?
Output: 101

Task: Could you share which relative viability value was measured for `O=C1c2ccccc2C(=O)c2c1ccc(O)c2O` ?
Output: 105

Task: Could you share which relative viability value was measured for `O=C(O)[C@H]1O[C@@H](Oc2cc3oc(-c4ccccc4)cc(=O)c3c(O)c2O)[C@H](O)[C@@H](O)[C@@H]1O` ?
Output: 106

Task: Could you share which relative viability value was measured for `Cc1[nH]c(/C=C2\C(=O)Nc3ccccc32)c(C)c1CCC(=O)O` ?
Output: 110

Task: Could you share which relative viability value was measured for `CCC[C@H](NC(=O)/C(C#N)=C/c1cccc(Br)n1)c1ccccc1` ?
Output: 100

Task: Could you share which relative viability value was measured for `Oc1ccc([C@@H]2Oc3ccc(O)cc3[C@@H]3CCC[C@@H]32)cc1` ?
Output: 108

Task: Could you share which relative viability value was measured for `COc1cccc(-c2cc(=O)c3ccccc3o2)c1N` ?
Output: 104

Task: Could you share which relative viability value was measured for `C[C@@H]1CCN(C(=O)CC#N)C[C@@H]1N(C)c1ncnc2[nH]ccc12` ?
Output: 109

Task: Could you share which relative viability value was measured for CN(C)CCCN1c2ccccc2Sc2ccc(Cl)cc21 [Chlorpromazine HCl] ?
Output: 101

Task: Could you share which relative viability value was measured for `CNC(=O)c1cc(Oc2ccc(NC(=O)Nc3cc(C(C)(C)C)nn3-c3ccc4ncccc4c3)c(F)c2)ccn1` ?
Output: 87

Task: Could you share which relative viability value was measured for `C/C(=C\c1csc(C)n1)[C@@H]1C[C@@H]2O[C@@H]2CCC[C@H](C)[C@H](O)[C@@H](C)C(=O)C(C)(C)[C@@H](O)CC(=O)O1` ?
Output: 27.3

Task: Could you share which relative viability value was measured for COc1ccc([C@H]2CNC(=O)C2)cc1OC1CCCC1 [S-(+)-Rolipram] ?
Output: 101

Task: Could you share which relative viability value was measured for `Cc1[nH]c(/C=C2\C(=O)Nc3ccc(S(=O)(=O)N(C)c4cccc(Cl)c4)cc32)c(C)c1C(=O)N1CCN(C)CC1` ?
Output: 91.6

Task: Could you share which relative viability value was measured for `CO[C@H]1/C=C\C=C(/C)C(=O)NC2=CC(=O)C(NCCN(C)C)=C(C[C@@H](C)C[C@H](OC)[C@H](O)[C@@H](C)/C=C(\C)[C@@H]1OC(N)=O)C2=O` ?
Output: 21.7

Task: Could you share which relative viability value was measured for `CNC(=O)CN1CCC(Oc2cc3c(Nc4cccc(Cl)c4F)ncnc3cc2OC)CC1` ?
Output: 96.6

Task: Could you share which relative viability value was measured for `Nc1nc(=O)[nH]cc1F` ?
Output: 102
